Recorded ka, one value per entry.
measured-on: T1, Human in house BCMA (Homo sapiens, UniProt Q02223)
T1 construct: CD33 signal peptide (N); TEV site (internal); Fc (C); made in house
procedure-summary: ProteOn analysis of CA8 chimeric and humanised constructs, human in house BCMA
Format: binding
condition-set: Run 1, Human in house BCMA, ProteOn, 25° C.; in M-1s-1 (unit assumed)
measure: ka

[[record]]
molecule = "CA8 humanised J5M2: humanised CA8 anti-BCMA antibody, VH J5 (SEQ ID NO:21) + VL M2 (SEQ ID NO:35) (antibody, V domains shown, Humansed antibody sequence) VH: QVQLVQSGAEVKKPGSSVKVSCKGSGYTFTNYWMHWVRQAPGQGLEWMGATYRGHSDTYYNQKFKGRVTITADTSTSTAYMELSSLRSEDTAVYYCTRGAIYDGYDVLDNWGQGTLVTVSS VL: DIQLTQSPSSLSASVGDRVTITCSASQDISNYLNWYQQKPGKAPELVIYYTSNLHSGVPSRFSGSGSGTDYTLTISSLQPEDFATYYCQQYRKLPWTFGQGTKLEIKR"
val = "2.67E+05"

[[record]]
molecule = "CA8 humanised J2M2: humanised CA8 anti-BCMA antibody, VH J2 (SEQ ID NO:15) + VL M2 (SEQ ID NO:35) (antibody, V domains shown, Humansed antibody sequence) VH: QVQLVQSGAEVKKPGSSVKVSCKASGYTFTNYWMHWVRQAPGQGLEWMGATYRGHSDTYYNQKFKGRVTITADKSTSTAYMELSSLRSEDTAVYYCTRGAIYNGYDVLDNWGQGTLVTVSS VL: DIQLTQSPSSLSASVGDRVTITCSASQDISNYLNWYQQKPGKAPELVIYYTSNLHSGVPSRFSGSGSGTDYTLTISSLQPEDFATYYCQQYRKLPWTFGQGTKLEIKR"
val = "2.05E+05"

[[record]]
molecule = "CA8 humanised J3M1: humanised CA8 anti-BCMA antibody, VH J3 (SEQ ID NO:17) + VL M1 (SEQ ID NO:33) (antibody, V domains shown, Humansed antibody sequence) VH: QVQLVQSGAEVKKPGSSVKVSCKGSGYTFTNYWMHWVRQAPGQGLEWMGATYRGHSDTYYNQKFKGRVTITADTSTSTAYMELSSLRSEDTAVYYCTRGAIYNGYDVLDNWGQGTLVTVSS VL: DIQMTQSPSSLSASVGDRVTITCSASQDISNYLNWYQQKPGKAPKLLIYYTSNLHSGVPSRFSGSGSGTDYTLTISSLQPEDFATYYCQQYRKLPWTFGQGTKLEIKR"
val = "2.85E+05"

[[record]]
molecule = "S307118G03 humanised H3L0: humanised S307118G03, VH H3 (SEQ ID NO:83) + VL L0 (SEQ ID NO:89) (antibody, V domains shown, Humansed antibody sequence) VH: QVQLVQSGAEVKKPGSSVKVSCKASGYTFTDYYMKWVRQAPGQGLEWIGEIYPNNGGITYNQKFKGRATLTVDKSTSTAYMELSSLRSEDTAVYYCANGYEFVYWGQGTLVTVSS VL: DIQMTQSPSSLSASVGDRVTITCSASQGISNYLNWYQQKPGKAPKLLIYYTSSLHSGVPSRFSGSGSGTDFTLTISSLQPEDFATYYCQQYSKLPWTFGQGTKLEIKR"
val = "2.86E+05"

